System: PPARg:RXRa IVT, anti-PPARg (NR concentration 270 nM, RXRa partner concentration 90 nM)
MEASUREMENT DESCRIPTION: PBM binding z-score (relative to random genomic background probes); higher = stronger binding; sequences stand for … in GC…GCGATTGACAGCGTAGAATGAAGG
// PBM binding z-score lookup, one value per entry

* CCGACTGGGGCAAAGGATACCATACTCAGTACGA | 3.35
* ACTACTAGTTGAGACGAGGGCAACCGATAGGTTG | 0.419
* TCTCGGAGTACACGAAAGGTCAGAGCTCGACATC | 1.77
* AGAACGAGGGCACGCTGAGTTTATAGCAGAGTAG | 3.85
* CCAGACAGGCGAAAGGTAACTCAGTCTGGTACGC | -0.108

Turning to the following sequence.
Looking for the measured PBM binding z-score of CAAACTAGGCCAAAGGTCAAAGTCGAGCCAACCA , can you help? 7.78
